Answer each item with its documented relative viability.
Test system: NCI-H1944
protocol: relative viability (nuclei count vs DMSO), 5 days (fraction); higher = more cells survive
reportedConditions: first compound 0.01581 µM
Give bare numbers.

Below: 3 compounds and their reported relative viability.
>>> valueobserved("CC1(C)CCC(c2ccc(Cl)cc2)=C(CN2CCN(c3ccc(C(=O)NS(=O)(=O)c4ccc(N[C@H](CCN5CCOCC5)CSc5ccccc5)c(S(=O)(=O)C(F)(F)F)c4)cc3)CC2)C1 [Navitoclax] + O=C(CCCCCCC(=O)Nc1ccccc1)NO [Vorinostat] (partner 1 µM)")
0.603
>>> valueobserved("CC1(C)CCC(c2ccc(Cl)cc2)=C(CN2CCN(c3ccc(C(=O)NS(=O)(=O)c4ccc(N[C@H](CCN5CCOCC5)CSc5ccccc5)c(S(=O)(=O)C(F)(F)F)c4)cc3)CC2)C1 [Navitoclax] + CCNC(=O)c1noc(-c2cc(C(C)C)c(O)cc2O)c1-c1ccc(CN2CCOCC2)cc1 [Luminespib] (partner 0.01 µM)")
0.717
>>> valueobserved("CC1(C)CCC(c2ccc(Cl)cc2)=C(CN2CCN(c3ccc(C(=O)NS(=O)(=O)c4ccc(N[C@H](CCN5CCOCC5)CSc5ccccc5)c(S(=O)(=O)C(F)(F)F)c4)cc3)CC2)C1 [Navitoclax] + C[C@]1(O)C[C@@H](c2nc(-c3ccc4ccc(-c5ccccc5)nc4c3)c3c(N)nccn32)C1 [Linsitinib] (partner 1 µM)")
1.33

State recorded relative viability for all listed compounds.
1. CC1(C)CCC(c2ccc(Cl)cc2)=C(CN2CCN(c3ccc(C(=O)NS(=O)(=O)c4ccc(N[C@H](CCN5CCOCC5)CSc5ccccc5)c(S(=O)(=O)C(F)(F)F)c4)cc3)CC2)C1 [Navitoclax] + C[C@@H](Oc1cc(-c2cnn(C3CCNCC3)c2)cnc1N)c1c(Cl)ccc(F)c1Cl [Crizotinib] (partner 1 µM)
2. CC1(C)CCC(c2ccc(Cl)cc2)=C(CN2CCN(c3ccc(C(=O)NS(=O)(=O)c4ccc(N[C@H](CCN5CCOCC5)CSc5ccccc5)c(S(=O)(=O)C(F)(F)F)c4)cc3)CC2)C1 [Navitoclax] + Cc1nc(NC(=O)N2CCC[C@H]2C(N)=O)sc1-c1ccnc(C(C)(C)C(F)(F)F)c1 [Alpelisib] (partner 2 µM)

*A*
1.13
0.863

State recorded relative viability for all listed compounds.
1. CC1(C)CCC(c2ccc(Cl)cc2)=C(CN2CCN(c3ccc(C(=O)NS(=O)(=O)c4ccc(N[C@H](CCN5CCOCC5)CSc5ccccc5)c(S(=O)(=O)C(F)(F)F)c4)cc3)CC2)C1 [Navitoclax] + N=C(N)NC(=N)NCCc1ccccc1 [Phenformin] (partner 250 µM)
2. CC1(C)CCC(c2ccc(Cl)cc2)=C(CN2CCN(c3ccc(C(=O)NS(=O)(=O)c4ccc(N[C@H](CCN5CCOCC5)CSc5ccccc5)c(S(=O)(=O)C(F)(F)F)c4)cc3)CC2)C1 [Navitoclax] + CC(=O)c1c(C)c2cnc(Nc3ccc(N4CCNCC4)cn3)nc2n(C2CCCC2)c1=O [Palbociclib] (partner 0.5 µM)
3. CC1(C)CCC(c2ccc(Cl)cc2)=C(CN2CCN(c3ccc(C(=O)NS(=O)(=O)c4ccc(N[C@H](CCN5CCOCC5)CSc5ccccc5)c(S(=O)(=O)C(F)(F)F)c4)cc3)CC2)C1 [Navitoclax] + Cc1cc(Nc2cc(N3CCN(C)CC3)nc(Sc3ccc(NC(=O)C4CC4)cc3)n2)n[nH]1 [Tozasertib] (partner 0.1 µM)

*A*
[0.191, 0.364, 0.246]

---

System: NCI-H441
protocol: relative viability (nuclei count vs DMSO), 5 days (fraction); higher = more cells survive
reportedConditions: first compound 0.01581 µM
propertyLabel: relative viability
Give bare numbers.

>>> valueobserved("CC1(C)CCC(c2ccc(Cl)cc2)=C(CN2CCN(c3ccc(C(=O)NS(=O)(=O)c4ccc(N[C@H](CCN5CCOCC5)CSc5ccccc5)c(S(=O)(=O)C(F)(F)F)c4)cc3)CC2)C1 [Navitoclax] + N=C(N)NC(=N)NCCc1ccccc1 [Phenformin] (partner 250 µM)")
1.14
>>> valueobserved("CC1(C)CCC(c2ccc(Cl)cc2)=C(CN2CCN(c3ccc(C(=O)NS(=O)(=O)c4ccc(N[C@H](CCN5CCOCC5)CSc5ccccc5)c(S(=O)(=O)C(F)(F)F)c4)cc3)CC2)C1 [Navitoclax] + CS(=O)(=O)N1CCN(Cc2cc3nc(-c4cccc5[nH]ncc45)nc(N4CCOCC4)c3s2)CC1 [Pictilisib] (partner 1 µM)")
0.606
>>> valueobserved("CC1(C)CCC(c2ccc(Cl)cc2)=C(CN2CCN(c3ccc(C(=O)NS(=O)(=O)c4ccc(N[C@H](CCN5CCOCC5)CSc5ccccc5)c(S(=O)(=O)C(F)(F)F)c4)cc3)CC2)C1 [Navitoclax] + CC(C)C[C@H](NC(=O)[C@H](Cc1ccccc1)NC(=O)c1cnccn1)B(O)O [Bortezomib] (partner 0.002 µM)")
0.737

Now let's try a different one.
*Q* Write down the reported relative viability of CC1(C)CCC(c2ccc(Cl)cc2)=C(CN2CCN(c3ccc(C(=O)NS(=O)(=O)c4ccc(N[C@H](CCN5CCOCC5)CSc5ccccc5)c(S(=O)(=O)C(F)(F)F)c4)cc3)CC2)C1 [Navitoclax] + Nc1ncn([C@H]2C[C@H](O)[C@@H](CO)O2)c(=O)n1 [Decitabine] (partner 2 µM) , test system: NCI-H441.
*A* 0.217

---

System: HCC-78
protocol: relative viability (nuclei count vs DMSO), 5 days (fraction); higher = more cells survive
reportedConditions: first compound 0.253 µM
Answer each item with its documented relative viability.
One number for each entry.

>>> valueobserved("Oc1nc(-c2ccc(C(F)(F)F)cc2)nc2c1CSCC2 [XAV939] + COc1cc2c(Oc3ccc(NC(=O)C4(C(=O)Nc5ccc(F)cc5)CC4)cc3F)ccnc2cc1OCCCN1CCOCC1 [Foretinib] (partner 0.25 µM)")
0.552
>>> valueobserved("C=C1C(=O)O[C@@H](CCCCCCCC)[C@@H]1C(=O)O [C-75] + Nc1nc2[nH]cc(CCc3ccc(C(=O)N[C@@H](CCC(=O)O)C(=O)O)cc3)c2c(=O)[nH]1 [Pemetrexed] (partner 0.2 µM)")
0.902

Now let's try a different one.
*Q* Write down the reported relative viability of Oc1nc(-c2ccc(C(F)(F)F)cc2)nc2c1CSCC2 [XAV939] + CS(=O)(=O)N1CCN(Cc2cc3nc(-c4cccc5[nH]ncc45)nc(N4CCOCC4)c3s2)CC1 [Pictilisib] (partner 1 µM) , test system: HCC-78.
*A* 0.206

---

System: LXF-289
protocol: relative viability (nuclei count vs DMSO), 5 days (fraction); higher = more cells survive
reportedConditions: first compound 0.253 µM
Answer each item with its documented relative viability.
One number for each entry.

>>> valueobserved("C=C1C(=O)O[C@@H](CCCCCCCC)[C@@H]1C(=O)O [C-75] + O=C(CCCCCCC(=O)Nc1ccccc1)NO [Vorinostat] (partner 1 µM)")
0.927
>>> valueobserved("Oc1nc(-c2ccc(C(F)(F)F)cc2)nc2c1CSCC2 [XAV939] + Nc1nc2[nH]cc(CCc3ccc(C(=O)N[C@@H](CCC(=O)O)C(=O)O)cc3)c2c(=O)[nH]1 [Pemetrexed] (partner 0.2 µM)")
0.916
>>> valueobserved("Oc1nc(-c2ccc(C(F)(F)F)cc2)nc2c1CSCC2 [XAV939] + COc1cc2c(Oc3ccc(NC(=O)C4(C(=O)Nc5ccc(F)cc5)CC4)cc3F)ccnc2cc1OCCCN1CCOCC1 [Foretinib] (partner 0.25 µM)")
0.95
>>> valueobserved("Oc1nc(-c2ccc(C(F)(F)F)cc2)nc2c1CSCC2 [XAV939] + N=C(N)NC(=N)NCCc1ccccc1 [Phenformin] (partner 250 µM)")
0.48

State recorded relative viability for all listed compounds.
1. Oc1nc(-c2ccc(C(F)(F)F)cc2)nc2c1CSCC2 [XAV939] + CC(C)C[C@H](NC(=O)[C@H](Cc1ccccc1)NC(=O)c1cnccn1)B(O)O [Bortezomib] (partner 0.002 µM)
2. C=C1C(=O)O[C@@H](CCCCCCCC)[C@@H]1C(=O)O [C-75] + COc1cc2c(Oc3ccc(NC(=O)C4(C(=O)Nc5ccc(F)cc5)CC4)cc3F)ccnc2cc1OCCCN1CCOCC1 [Foretinib] (partner 0.25 µM)
3. Oc1nc(-c2ccc(C(F)(F)F)cc2)nc2c1CSCC2 [XAV939] + CC1(C)CCC(c2ccc(Cl)cc2)=C(CN2CCN(c3ccc(C(=O)NS(=O)(=O)c4ccc(N[C@H](CCN5CCOCC5)CSc5ccccc5)c(S(=O)(=O)C(F)(F)F)c4)cc3)CC2)C1 [Navitoclax] (partner 0.5 µM)

*A*
1. 0.966
2. 0.965
3. 0.911

---

Answer each item with its documented relative viability.
Tested on: HCC-44
protocol: relative viability (nuclei count vs DMSO), 5 days (fraction); higher = more cells survive
reportedConditions: first compound 0.03162 µM

Below: 3 molecules and their reported relative viability.
>>> valueobserved("NC(=O)Nc1cc(-c2cccc(F)c2)sc1C(=O)N[C@H]1CCCNC1 [AZD7762] + Nc1nc2[nH]cc(CCc3ccc(C(=O)N[C@@H](CCC(=O)O)C(=O)O)cc3)c2c(=O)[nH]1 [Pemetrexed] (partner 0.2 µM)")
0.548
>>> valueobserved("NC(=O)Nc1cc(-c2cccc(F)c2)sc1C(=O)N[C@H]1CCCNC1 [AZD7762] + Cc1cc(Nc2cc(N3CCN(C)CC3)nc(Sc3ccc(NC(=O)C4CC4)cc3)n2)n[nH]1 [Tozasertib] (partner 0.1 µM)")
0.87
>>> valueobserved("NC(=O)Nc1cc(-c2cccc(F)c2)sc1C(=O)N[C@H]1CCCNC1 [AZD7762] + CC(=O)Nc1cccc(-n2c(=O)n(C3CC3)c(=O)c3c(Nc4ccc(I)cc4F)n(C)c(=O)c(C)c32)c1 [Trametinib] (partner 0.02 µM)")
1.04

*Q* State the recorded relative viability for this entry: NC(=O)Nc1cc(-c2cccc(F)c2)sc1C(=O)N[C@H]1CCCNC1 [AZD7762] + Nc1ncn([C@H]2C[C@H](O)[C@@H](CO)O2)c(=O)n1 [Decitabine] (partner 2 µM)
*A* 0.959
